Origin of measurements: patent US8455516B2

# TI (TC50/IC50) per entry
# System: Pseudovirus HIV-1 BAL (CCR5-tropic strain)
# Condition description: 10% Serum

>  <Smiles record>
COc1cccc(-c2ccc3ccn(Cc4cccc(C(=O)O)c4)c3c2)c1

>  <Measured target>
Pseudovirus HIV-1 BAL (CCR5-tropic strain)

>  <TI (TC50/IC50)>
>2.11

$$$$
>  <Smiles record>
O=C(O)c1cccc(Cc2ccc3ccn(Cn4ccc5ccc(Cc6cccc(C(=O)O)c6)cc54)c3c2)c1

>  <Measured target>
Pseudovirus HIV-1 BAL (CCR5-tropic strain)

>  <TI (TC50/IC50)>
>1.09

$$$$
>  <Smiles record>
O=C(O)c1cccc(Cc2ccc3cc[nH]c3c2)c1

>  <Measured target>
Pseudovirus HIV-1 BAL (CCR5-tropic strain)

>  <TI (TC50/IC50)>
>2.24

$$$$
>  <Smiles record>
COc1cccc(-n2ccc3ccc(Cc4cccc(C(=O)O)c4)cc32)c1

>  <Measured target>
Pseudovirus HIV-1 BAL (CCR5-tropic strain)

>  <TI (TC50/IC50)>
>1.48

$$$$
>  <Smiles record>
COc1ccc(COc2cccc(-c3ccc4ccn(Cc5cccc(C(=O)OCc6cccc(C(=O)O)c6)c5)c4c3)c2)cc1

>  <Measured target>
Pseudovirus HIV-1 BAL (CCR5-tropic strain)

>  <TI (TC50/IC50)>
>4.42

$$$$

* * *

# Measured target: gp41 hydrophobic pocket (receptor Fe(env2.0)3) (Human immunodeficiency virus type 1 group M subtype B)
pKi: −log10 of the molar value.

>  <Smiles record>
O=C(O)c1cccc(Cc2ccc3ccn(-c4cccc(C(=O)O)c4)c3c2)c1

>  <pKi>
4.35

$$$$

* * *

# Test system: TZM-bl cells
# Assay info: cytotoxicity, luciferase expression-based test
# Condition description: toxicity to TZM-bl cells, 24 hour exposure
# CC50 per entry

>  <Smiles record>
O=C(O)c1cccc(Cc2ccc3c(ccn3Cc3cccc(C(=O)O)c3)c2)c1

>  <CC50>
> 400 µM

$$$$
>  <Smiles record>
O=C(O)c1cccc(Cc2ccc3ccn(-c4cccc(C(=O)O)c4)c3c2)c1

>  <CC50>
> 400 µM

$$$$
>  <Smiles record>
O=C(O)c1cccc(Cn2ccc3cc(-c4cccc(C(=O)O)c4)ccc32)c1

>  <CC50>
> 400 µM

$$$$
>  <Smiles record>
COc1ccc(Cn2ccc3ccc(Cc4cccc(C(=O)O)c4)cc32)cc1

>  <CC50>
100 µM

$$$$

* * *

# Assay info: cytotoxicity, luciferase expression-based test
# Condition description: human, TZM-bl cells
Quantity name: CC50 at 24 h

>  <Smiles record>
O=C(O)c1cccc(Cn2ccc3cc(-c4ccc5cc(Cl)ccc5n4)ccc32)c1

>  <Quantity name>
CC50 at 24 h

>  <Measurement>
156 µM

$$$$
>  <Smiles record>
O=C(O)c1cccc(Cn2ccc3ccc(-c4ccc5cc(Cl)ccc5n4)cc32)c1

>  <Quantity name>
CC50 at 24 h

>  <Measurement>
93 µM

$$$$
>  <Smiles record>
O=Cc1c[nH]c2cc(Cc3cccc(C(=O)O)c3)ccc12

>  <Quantity name>
CC50 at 24 h

>  <Measurement>
> 100 µM

$$$$
>  <Smiles record>
O=C(O)c1cccc(COc2cccc(-c3ccc4ccn(Cc5cccc(C(=O)O)c5)c4c3)c2)c1

>  <Quantity name>
CC50 at 24 h

>  <Measurement>
> 100 µM

$$$$
>  <Smiles record>
COc1ccc(COc2cccc(-c3ccc4ccn(Cc5cccc(C(=O)OCc6cccc(C(=O)O)c6)c5)c4c3)c2)cc1

>  <Quantity name>
CC50 at 24 h

>  <Measurement>
> 100 µM

$$$$
>  <Smiles record>
O=[N+]([O-])c1cccc(Cc2ccc3cc[nH]c3c2)c1

>  <Quantity name>
CC50 at 24 h

>  <Measurement>
~63 µM

$$$$
>  <Smiles record>
O=C(O)c1ccc(O)c(Cc2ccc3cc[nH]c3c2)c1

>  <Quantity name>
CC50 at 24 h

>  <Measurement>
> 100 µM

$$$$
>  <Smiles record>
COc1cc(Cc2ccc3cc[nH]c3c2)cc(C(=O)O)c1

>  <Quantity name>
CC50 at 24 h

>  <Measurement>
> 100 µM

$$$$

* * *

# Assay info: cytotoxicity, luciferase expression-based test
# Condition description: human, TZM-bl cells

>  <Smiles record>
O=C(O)c1cccc(-c2ccc3cc[nH]c3c2)c1

>  <CC50 at 24 h>
> 100 µM

$$$$
>  <Smiles record>
COc1ccc(C(=O)O)cc1Cc1ccc2cc[nH]c2c1

>  <CC50 at 24 h>
> 100 µM

$$$$
>  <Smiles record>
COc1cccc(-n2ccc3ccc(Cc4cccc(C(=O)O)c4)cc32)c1

>  <CC50 at 24 h>
> 100 µM

$$$$
>  <Smiles record>
O=C(O)c1ccc([N+](=O)[O-])c(Cc2ccc3cc[nH]c3c2)c1

>  <CC50 at 24 h>
> 100 µM

$$$$
>  <Smiles record>
O=C(O)c1cccc(Cc2ccc3cc[nH]c3c2)c1

>  <CC50 at 24 h>
> 500 µM

$$$$

* * *

# TI (TC50/IC50) per entry
# System: Pseudovirus HIV-1 BAL (CCR5-tropic strain)
# Condition description: 5% Serum

>  <Smiles record>
COc1ccc(COc2cccc(-c3ccc4ccn(Cc5cccc(C(=O)OCc6cccc(C(=O)O)c6)c5)c4c3)c2)cc1

>  <TI (TC50/IC50)>
>5.35

$$$$
>  <Smiles record>
O=C(O)c1cccc(Cc2ccc3ccn(Cn4ccc5ccc(Cc6cccc(C(=O)O)c6)cc54)c3c2)c1

>  <TI (TC50/IC50)>
>2.02

$$$$
>  <Smiles record>
O=C(O)c1cccc(Cc2ccc3cc[nH]c3c2)c1

>  <TI (TC50/IC50)>
>2.87

$$$$
>  <Smiles record>
COc1cccc(-n2ccc3ccc(Cc4cccc(C(=O)O)c4)cc32)c1

>  <TI (TC50/IC50)>
>2.94

$$$$
>  <Smiles record>
COc1cccc(-c2ccc3ccn(Cc4cccc(C(=O)O)c4)c3c2)c1

>  <TI (TC50/IC50)>
>2.73

$$$$

* * *

# Tested on: Pseudovirus HIV-1 BAL (CCR5-tropic strain)
# Condition description: 2% Serum
Quantity name: TI (TC50/IC50)

>  <Smiles record>
COc1cccc(-c2ccc3ccn(Cc4cccc(C(=O)O)c4)c3c2)c1

>  <Measured target>
Pseudovirus HIV-1 BAL (CCR5-tropic strain)

>  <Bound type>
=

>  <Measurement>
3.75

$$$$
>  <Smiles record>
O=C(O)c1cccc(Cc2ccc3ccn(Cn4ccc5ccc(Cc6cccc(C(=O)O)c6)cc54)c3c2)c1

>  <Measured target>
Pseudovirus HIV-1 BAL (CCR5-tropic strain)

>  <Bound type>
>

>  <Measurement>
6.85

$$$$
>  <Smiles record>
O=C(O)c1cccc(Cc2ccc3cc[nH]c3c2)c1

>  <Measured target>
Pseudovirus HIV-1 BAL (CCR5-tropic strain)

>  <Bound type>
>

>  <Measurement>
6.45

$$$$
>  <Smiles record>
COc1ccc(COc2cccc(-c3ccc4ccn(Cc5cccc(C(=O)OCc6cccc(C(=O)O)c6)c5)c4c3)c2)cc1

>  <Measured target>
Pseudovirus HIV-1 BAL (CCR5-tropic strain)

>  <Bound type>
=

>  <Measurement>
4.27

$$$$
>  <Smiles record>
COc1cccc(-n2ccc3ccc(Cc4cccc(C(=O)O)c4)cc32)c1

>  <Measured target>
Pseudovirus HIV-1 BAL (CCR5-tropic strain)

>  <Bound type>
>

>  <Measurement>
6.33

$$$$

* * *

# Tested on: Pseudovirus HIV-1 BAL (CCR5-tropic strain)
# Assay info: microbe, parasite or virus in culture
# Condition description: MAGI, 2% Serum

>  <Compound>
O=C(O)c1cccc(Cc2ccc3ccn(Cn4ccc5ccc(Cc6cccc(C(=O)O)c6)cc54)c3c2)c1 [Compound I-5]

>  <Bound type>
=

>  <IC90 / µM>
71.2

$$$$
>  <Compound>
O=C(O)c1cccc(Cc2ccc3cc[nH]c3c2)c1 [Compound I-1, 3-((1H-indol-6-yl)methyl)benzoic acid]

>  <Bound type>
=

>  <IC90 / µM>
58

$$$$
>  <Compound>
COc1ccc(COc2cccc(-c3ccc4ccn(Cc5cccc(C(=O)OCc6cccc(C(=O)O)c6)c5)c4c3)c2)cc1 [Compound I-22]

>  <Bound type>
=

>  <IC90 / µM>
31.1

$$$$
>  <Compound>
COc1cccc(-n2ccc3ccc(Cc4cccc(C(=O)O)c4)cc32)c1 [Compound I-7]

>  <Bound type>
>

>  <IC90 / µM>
100

$$$$
>  <Compound>
COc1cccc(-c2ccc3ccn(Cc4cccc(C(=O)O)c4)c3c2)c1 [Compound I-11]

>  <Bound type>
>

>  <IC90 / µM>
100

$$$$

* * *

# Tested on: Pseudovirus HIV-1 BAL (CCR5-tropic strain)
# Assay info: microbe, parasite or virus in culture
# Condition description: MAGI, 10% Serum
Quantity name: IC50 (µM)

>  <Smiles record>
COc1cccc(-n2ccc3ccc(Cc4cccc(C(=O)O)c4)cc32)c1

>  <Measurement>
67.7

$$$$
>  <Smiles record>
COc1ccc(COc2cccc(-c3ccc4ccn(Cc5cccc(C(=O)OCc6cccc(C(=O)O)c6)c5)c4c3)c2)cc1

>  <Measurement>
22.6

$$$$
>  <Smiles record>
O=C(O)c1cccc(Cc2ccc3cc[nH]c3c2)c1

>  <Measurement>
44.7

$$$$
>  <Smiles record>
COc1cccc(-c2ccc3ccn(Cc4cccc(C(=O)O)c4)c3c2)c1

>  <Measurement>
47.4

$$$$
>  <Smiles record>
O=C(O)c1cccc(Cc2ccc3ccn(Cn4ccc5ccc(Cc6cccc(C(=O)O)c6)cc54)c3c2)c1

>  <Measurement>
92.1

$$$$
